// provenance: patent US20140341881A1

target: human plasma kallikrein (PK) (human, UniProt P03952 20-638); experiment: cell-based or functional assay; further: test concentration or dose not given here
Sequence (P03952 20-638 limits assumed): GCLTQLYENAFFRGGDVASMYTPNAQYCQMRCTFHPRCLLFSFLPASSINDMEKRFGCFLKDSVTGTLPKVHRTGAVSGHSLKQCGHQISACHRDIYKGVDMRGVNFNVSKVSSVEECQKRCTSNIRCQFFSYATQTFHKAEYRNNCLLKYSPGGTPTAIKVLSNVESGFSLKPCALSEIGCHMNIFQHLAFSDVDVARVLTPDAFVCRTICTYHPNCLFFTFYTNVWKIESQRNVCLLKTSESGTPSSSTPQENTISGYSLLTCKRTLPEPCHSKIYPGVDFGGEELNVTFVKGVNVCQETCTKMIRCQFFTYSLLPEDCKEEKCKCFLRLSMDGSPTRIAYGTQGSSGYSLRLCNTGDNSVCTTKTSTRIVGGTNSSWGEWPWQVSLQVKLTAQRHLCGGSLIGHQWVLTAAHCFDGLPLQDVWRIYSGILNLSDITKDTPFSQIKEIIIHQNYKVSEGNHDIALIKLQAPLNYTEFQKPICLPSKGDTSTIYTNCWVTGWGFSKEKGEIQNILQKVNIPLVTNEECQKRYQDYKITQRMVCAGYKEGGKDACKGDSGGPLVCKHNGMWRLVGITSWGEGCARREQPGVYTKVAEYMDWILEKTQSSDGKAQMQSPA
ENDPOINT NAME: % Inhibition (%)

BINDER	UNIT SYMBOL	VAL
AATC11 (other, human, mature) HHHHHHEDPQGDAAQKTDTSHHDQDHPTFNKITPNLAEFAFSLYRQLAHQSNSTNIFFSPVSIATAFAMLSLGTKADTHDEILEGLNFNLTEIPEAQIHEGFQELLRTLNQPDSQLQLTTGNGLFLSEGLKLVDKFLEDVKKLYHSEAFTVNFGDTEEAKKQINDYVEKGTQGKIVDLVKELDRDTVFALVNYIFFKGKWERPFEVKDTEEEDFHVDQVTTVKVPMMKRLGMFNIQHCKKLSSWVLLMKYLGNATAIFFLPDEGKLQHLENELTHDIITKFLENEDRRSASLHLPKLSITGTYDLKSVLGQLGITKVFSNGADLSGVTEEAPLKLSKAVHKAVLTIDEKGTEAAGAMFLEAIPRQTNPEVKFNKPFVFLMIEQNTKSPLFMGKVVNPTQK	%	8
